Tested on: CAKI-1 renal
MEASUREMENT PROTOCOL: NCI tumour cell line growth inhibition, 48 h
ATTRIBUTE MEASURED: TGI (µM)

> print(dat)
                                   molecule  attribute.measured  value.unit  result.comparator  reported
1           C/C(=N\NC(N)=S)c1nc2ncccc2[nH]1                 TGI          µM                  >       100
2  CC1(C)C(=O)/C=C\C(=O)C(C)(C)C(=O)/C=C\C(=O)C(C)(C)C2=CC=C(O2)C(C)(C)C(=O)/C=C\C1=O                 TGI          µM                  =      7.91
3  Nc1ccn(C2CCC(COP(=O)(O)OCC(O)COP(=O)(O)OCC3OC(n4cc(F)c(=O)[nH]c4=O)CC3O)O2)c(=O)n1 (centres undefined)                 TGI          µM                  >       100
4  Cc1cc(C)c2c(n1)S(=O)(=O)N(CCCN1CCN(c3cccc(Cl)c3)CC1)/C(=C(\O)c1ccc(Br)cc1)C2=O                 TGI          µM                  =      49.4
5  Fc1ccc(Nc2nc(Nc3ccc(-c4nc5ccccc5[nH]4)cc3)c3cn[nH]c3n2)cc1                 TGI          µM                  =      5.41
6  C=C1CCOC2(C(O)C(C)(O)CO)NC(=O)C1(O)NC2=O (centres undefined)                 TGI          µM                  >       100
7  N#CC1=C(N)OC2=C(CCOc3c2ccc2ccccc32)C1c1ccc(Br)cc1 (centres undefined)                 TGI          µM                  =      80.6
8                  Cc1[nH]c2nccn2c(=O)c1CCO                 TGI          µM                  >        10
9  CNC(=O)CNC(=O)N(C[C@@H]1CCCN1C(=O)[C@H](CC(C)C)NC(=O)OC(C)(C)C)C(C)C                 TGI          µM                  >       100

###

Test system: NCI-H226 lung
MEASUREMENT PROTOCOL: NCI tumour cell line growth inhibition, 48 h
ATTRIBUTE MEASURED: TGI

COMPOUND	ATTRIBUTE MEASURED	REPORTED
COc1ccc(-c2cc(-c3ccc(Nc4ccnc5cc(Cl)ccc45)cc3)[nH]c(=O)c2C#N)cc1	TGI	> 100 µM
COc1cc(/C=C/C(=N\NC(N)=S)c2sc(NNC(C)=O)nc2C)ccc1O	TGI	> 100 µM
CC(=O)[C@@]1(c2ccccc2)CC2(CCN(C)CC2)O[C@H]1C	TGI	> 100 µM
COc1cc(S(=O)(=O)Nc2ccc(-c3csc(N4C(=O)CSC4c4ccccc4O)n3)cc2)ccc1Cl (configuration not stated)	TGI	> 100 µM
CC[C@]12C=CCN3CC[C@@]4(c5cc(Br)c(OC)cc5N(C)[C@H]4[C@@](O)(C(=O)NC(Cc4c[nH]c5ccccc45)C(=O)OC)[C@@H]1O)[C@@H]32 (some centres not stated)	TGI	> 100 µM
CCCCOC(=O)NC(=O)c1cn(CCCOC(=O)CCCCCCCCC(=O)OCCCn2cc(C(=O)NC(=O)OCCCC)c(=O)n(C)c2=O)c(=O)n(C)c1=O	TGI	> 100 µM
COc1ccc(-c2[nH]ncc2Nc2cc(OC)c(OC)c(OC)c2)cc1	TGI	> 100 µM
O=c1/c(=C/c2ccccn2)sc2nc3cc4c(cc3n12)OCCO4	TGI	> 100 µM
CCN(CC)CCC1CCCCN1CC(=O)N1c2cc(Cl)ccc2NC(=O)CC1C (configuration not stated)	TGI	> 100 µM
COc1cccc(OC)c1NC(=O)C(=O)Nn1c(NNC(=O)c2ccncc2)nc2ccccc2c1=O	TGI	> 100 µM
CCOC(=O)/C=C1/SC(=Nc2ccc(C#N)cc2)N(Cc2ccco2)C1=O	TGI	4.76 µM
NC(=S)N1N=C2c3ccccc3CCC[C@H]2[C@@H]1c1ccccc1	TGI	11.1 µM

###

System: NCI-H226 lung
MEASUREMENT PROTOCOL: NCI tumour cell line growth inhibition, 48 h
ATTRIBUTE MEASURED: TGI

> print(dat)
                                    compound  attribute.measured  reported
 1  COc1cc(O)c(Cc2ccccc2O)c(O)c1C(=O)CCc1ccccc1                 TGI     32 µM
 2  NS(=O)(=O)c1ccc(N=Nc2c[nH]c(=O)c(O)c2)cc1                 TGI  > 100 µM
 3  O=S(=O)(c1ccccc1)c1ccc(-c2nc(-c3ccc4c(c3)Sc3ccccc3S4)cs2)cc1                 TGI  > 100 µM
 4    CCCCCCCCN=C(NCCCCCCCC)SCc1cccc2ccccc12                 TGI   2.95 µM
 5        COc1ccc(/C=C/C(=O)c2ccc(Br)cc2)cc1                 TGI  > 100 µM
 6      CSc1ccc(C(=O)/C=C/c2ccc(Cl)cc2Cl)cc1                 TGI   82.9 µM
 7  CN(C)CC1CCC/C(=C\c2ccc(OC(=O)/C=C/c3ccc(Cl)cc3)cc2)C1=O (stereo not drawn)                 TGI   20.2 µM
 8         CN(C)CCC[N+]1=Nc2cccc3cccc(c23)N1                 TGI  > 100 µM
 9  Fc1ccc(C(OCCN2CCC3CCC(C2)N3C/C=C/c2cccs2)c2ccc(F)cc2)cc1 (stereo not drawn)                 TGI   22.1 µM
10  CN1C(=O)C23CCCC2CC1(c1ccccc1)S3 (stereo not drawn)                 TGI  > 100 µM
11  COC(=O)c1c2c(cc3c1CC1(Cc4ccccc4C1)C3)CCC2                 TGI  > 100 µM
12              N=C(CC(=O)Nc1ccccn1)c1ccccc1                 TGI  > 100 µM
13  CC(=O)OCC1OC(n2c(=S)n(-c3ccccc3)c(=O)c3cc(Br)ccc32)C(OC(C)=O)C1OC(C)=O (stereo not drawn)                 TGI  > 100 µM
14  CC12CCc3ccccc3C1=NNC(=O)C2 (stereo not drawn)                 TGI  > 100 µM
15            CCCCCCCCCCCCCS(=O)(=O)NCC(N)=O                 TGI  > 100 µM
16         COc1ccc(/C=C/c2ccnc3ccccc23)cc1OC                 TGI   48.5 µM
17            O=c1c2c3c(sc2nc2n1NC=NN2)CCCC3                 TGI   49.8 µM
18  CC(NNC(=O)c1ccncc1)c1cccc(C(F)(F)F)c1 (stereo not drawn)                 TGI  > 100 µM
19                      O=C(CI)Nc1ccc(Br)cc1                 TGI   19.2 µM
20                 CSc1ncc2c(n1)-c1ccccc1OC2                 TGI  > 100 µM
21  COC(=O)c1c(O)ccc2c1c1c(n2Cc2cccc(C)c2)C(=O)c2ccccc2C1                 TGI   > 75 µM
22  COC(=O)c1ccccc1C1CN=NC12Cc1ccc3c(c1C2=O)CCC3 (stereo not drawn)                 TGI  > 100 µM
23  COc1ccc(NC(=O)C(=O)Cc2ccc([N+](=O)[O-])c([N+](=O)[O-])c2CC(=O)C(=O)Nc2ccc(OC)cc2OC)c(OC)c1                 TGI  > 100 µM

###

Test system: SK-MEL-2 melanoma
MEASUREMENT PROTOCOL: NCI tumour cell line growth inhibition, 48 h

COMPOUND	STUDY SYSTEM	TGI
CCS(=O)(=O)c1ccc(OC)c(Nc2ncc(-c3cccc(F)c3)o2)c1	SK-MEL-2 melanoma	> 25 µM
CN(C)CCCn1c(Cn2nc3ccccc3n2)nc2cc(C(F)(F)F)ccc21	SK-MEL-2 melanoma	43.5 µM
N#CC(/C(CCCC(=O)Nc1cccc([N+](=O)[O-])c1)=N\NC(=O)c1c(O)ccc2ccccc12)c1nc2ccccc2s1 (stereo not given)	SK-MEL-2 melanoma	> 100 µM
CC[C@]12C=CCN3CC[C@@]4(c5cc(Br)c(OC)cc5N(C)[C@H]4[C@@](O)(C(=O)NC(Cc4c[nH]c5ccccc45)C(=O)OC)[C@@H]1O)[C@@H]32 (stereo not given in full)	SK-MEL-2 melanoma	> 100 µM
COc1ccc2nc3ccccc3c(NCCNCC(C)O)c2c1 (stereo not given)	SK-MEL-2 melanoma	2.8 µM
CCCCCCCCN=C(NCCCCCCCC)SCc1cccc2ccccc12	SK-MEL-2 melanoma	3.77 µM
N#COc1ccc(Oc2ccc(OC#N)cc2)cc1	SK-MEL-2 melanoma	> 100 µM
O=C1NC(=NCCc2ccc(Br)cc2)S/C1=C\c1ccc2ncccc2c1	SK-MEL-2 melanoma	> 25 µM
NC(=O)/N=C/c1c(O)c2ccccc2oc1=O	SK-MEL-2 melanoma	> 100 µM
COc1cc(C(=O)n2nc(N)c3c(C)cc(C)nc32)cc(OC)c1OC	SK-MEL-2 melanoma	> 100 µM
